# Target Or Test System: CCR4 (Homo sapiens, UniProt P51679)
# Construct: host or cells: CHO-K1
# Sequence (P51679 1-360): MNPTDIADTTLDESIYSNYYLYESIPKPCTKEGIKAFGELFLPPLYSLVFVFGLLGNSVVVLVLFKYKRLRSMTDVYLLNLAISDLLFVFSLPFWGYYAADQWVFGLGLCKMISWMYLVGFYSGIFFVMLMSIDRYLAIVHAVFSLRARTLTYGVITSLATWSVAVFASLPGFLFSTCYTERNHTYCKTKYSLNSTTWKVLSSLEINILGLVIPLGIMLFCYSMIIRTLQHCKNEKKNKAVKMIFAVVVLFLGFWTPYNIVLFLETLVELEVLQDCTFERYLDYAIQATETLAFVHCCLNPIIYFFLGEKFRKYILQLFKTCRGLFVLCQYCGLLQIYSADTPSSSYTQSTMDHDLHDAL
# Measurement Description: PathHunter eXpress CCR4 CHO-K1 β-Arrestin GPCR Assay, antagonist format with CCL22
# Assay type: cell-based
# Assay Context: 10 nM CCL22, 0.001 uM
Quantity Name: Raw Data

> print(dat)
                             sequence.entry  quantity.name  measurement
1  ACLSCARHGNQCA [24-12-00-N001, bicyclic peptide ligand, TATA scaffold, from CCR4 cell-based selection]       Raw Data       162386
2  ACQTLCNTAEDIRCA [24-16-00-N001, bicyclic peptide ligand, TBMB scaffold, from CCR4 cell-based selection]       Raw Data       155442
3  ACRAVHSLRCLTTCA [24-17-00-N001, bicyclic peptide ligand, TATA scaffold, from CCR4 cell-based selection]       Raw Data       164018
4  ACPLMSSVNCTAGCA [24-13-00-N001, bicyclic peptide ligand, TBMB scaffold, from CCR4 cell-based selection]       Raw Data       195228
5  ACQLTCLTPARQPGCA [24-14-00-N001, bicyclic peptide ligand, TATA scaffold, from CCR4 cell-based selection]       Raw Data       163937
6  ACLNGCRNTNSQCA [24-11-00-N001, bicyclic peptide ligand, TATA scaffold, from CCR4 cell-based selection]       Raw Data       164482
7  ACQLTCLPPPRQPGCA [24-15-00-N001, bicyclic peptide ligand, TATA scaffold, from CCR4 cell-based selection]       Raw Data       166495

* * *

# Target Or Test System: CCR4 (Homo sapiens, UniProt P51679)
# Construct: host or cells: CHO-K1
# Measurement Description: PathHunter eXpress CCR4 CHO-K1 β-Arrestin GPCR Assay, agonist format
# Assay type: cell-based
# Assay Context: high concentration, 16.7 uM
Quantity Name: Raw Data

> print(dat)
                             sequence.entry                target.or.test.system  measurement
1  ACQLTCLPPPRQPGCA [24-15-00-N001, bicyclic peptide ligand, TATA scaffold, from CCR4 cell-based selection]  CCR4 (Homo sapiens, UniProt P51679)        13469
2  ACQLTCLTPARQPGCA [24-14-00-N001, bicyclic peptide ligand, TATA scaffold, from CCR4 cell-based selection]  CCR4 (Homo sapiens, UniProt P51679)        12239
3  ACQTLCNTAEDIRCA [24-16-00-N001, bicyclic peptide ligand, TBMB scaffold, from CCR4 cell-based selection]  CCR4 (Homo sapiens, UniProt P51679)        13237
4  ACLNGCRNTNSQCA [24-11-00-N001, bicyclic peptide ligand, TATA scaffold, from CCR4 cell-based selection]  CCR4 (Homo sapiens, UniProt P51679)        10968
5  ACRAVHSLRCLTTCA [24-17-00-N001, bicyclic peptide ligand, TATA scaffold, from CCR4 cell-based selection]  CCR4 (Homo sapiens, UniProt P51679)        16709
6  ACPLMSSVNCTAGCA [24-13-00-N001, bicyclic peptide ligand, TBMB scaffold, from CCR4 cell-based selection]  CCR4 (Homo sapiens, UniProt P51679)        12506
7  ACLSCARHGNQCA [24-12-00-N001, bicyclic peptide ligand, TATA scaffold, from CCR4 cell-based selection]  CCR4 (Homo sapiens, UniProt P51679)        12407

* * *

# Target Or Test System: CCR4 (Homo sapiens, UniProt P51679)
# Construct: host or cells: CHO-K1
# Sequence (P51679 1-360): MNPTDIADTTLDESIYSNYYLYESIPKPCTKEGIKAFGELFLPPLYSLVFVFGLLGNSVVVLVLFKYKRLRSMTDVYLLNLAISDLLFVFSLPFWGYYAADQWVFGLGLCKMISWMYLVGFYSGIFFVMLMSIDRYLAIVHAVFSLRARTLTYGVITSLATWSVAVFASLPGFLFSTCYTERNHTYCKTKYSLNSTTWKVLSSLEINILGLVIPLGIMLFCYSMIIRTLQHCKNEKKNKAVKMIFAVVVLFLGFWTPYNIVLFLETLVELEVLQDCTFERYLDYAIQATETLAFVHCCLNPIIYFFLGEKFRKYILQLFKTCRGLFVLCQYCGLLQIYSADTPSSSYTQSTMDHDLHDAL
# Measurement Description: PathHunter eXpress CCR4 CHO-K1 β-Arrestin GPCR Assay, agonist format
# Assay type: cell-based
# Assay Context: high concentration, 1.9 uM
Quantity Name: Raw Data

> print(dat)
                             sequence.entry  measurement
1  ACRAVHSLRCLTTCA [24-17-00-N001, bicyclic peptide ligand, TATA scaffold, from CCR4 cell-based selection]        17244
2  ACQLTCLTPARQPGCA [24-14-00-N001, bicyclic peptide ligand, TATA scaffold, from CCR4 cell-based selection]        12725
3  ACQLTCLPPPRQPGCA [24-15-00-N001, bicyclic peptide ligand, TATA scaffold, from CCR4 cell-based selection]        13457
4  ACPLMSSVNCTAGCA [24-13-00-N001, bicyclic peptide ligand, TBMB scaffold, from CCR4 cell-based selection]        12391
5  ACQTLCNTAEDIRCA [24-16-00-N001, bicyclic peptide ligand, TBMB scaffold, from CCR4 cell-based selection]        14247
6  ACLNGCRNTNSQCA [24-11-00-N001, bicyclic peptide ligand, TATA scaffold, from CCR4 cell-based selection]        11006
7  ACLSCARHGNQCA [24-12-00-N001, bicyclic peptide ligand, TATA scaffold, from CCR4 cell-based selection]        13661

* * *

# Target Or Test System: CCR4 (Homo sapiens, UniProt P51679)
# Construct: host or cells: CHO-K1
# Sequence (P51679 1-360): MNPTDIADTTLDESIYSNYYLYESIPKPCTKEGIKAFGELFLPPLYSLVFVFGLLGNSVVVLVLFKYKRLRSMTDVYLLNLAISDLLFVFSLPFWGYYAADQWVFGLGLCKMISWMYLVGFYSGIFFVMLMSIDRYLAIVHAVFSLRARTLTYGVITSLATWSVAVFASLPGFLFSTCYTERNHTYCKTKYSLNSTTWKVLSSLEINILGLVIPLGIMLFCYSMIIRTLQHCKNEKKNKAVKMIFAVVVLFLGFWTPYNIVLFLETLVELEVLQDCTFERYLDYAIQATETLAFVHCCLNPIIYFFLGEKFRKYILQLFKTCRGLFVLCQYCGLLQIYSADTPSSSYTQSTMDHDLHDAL
# Measurement Description: PathHunter eXpress CCR4 CHO-K1 β-Arrestin GPCR Assay, agonist format
# Type: cell-based
# Assay Context: 13.9 nM
Quantity Name: Raw Data

> print(dat)
                             sequence.entry  measurement
1  ACQLTCLTPARQPGCA [24-14-00-N001, bicyclic peptide ligand, TATA scaffold, from CCR4 cell-based selection]        24521
2  ACLSCARHGNQCA [24-12-00-N001, bicyclic peptide ligand, TATA scaffold, from CCR4 cell-based selection]        27830
3  ACQLTCLPPPRQPGCA [24-15-00-N001, bicyclic peptide ligand, TATA scaffold, from CCR4 cell-based selection]        25509
4  ACPLMSSVNCTAGCA [24-13-00-N001, bicyclic peptide ligand, TBMB scaffold, from CCR4 cell-based selection]        24436

* * *

# Target Or Test System: CCR4 (Homo sapiens)
# Construct: host or cells: CHO-K1
# Sequence (P51679 1-360): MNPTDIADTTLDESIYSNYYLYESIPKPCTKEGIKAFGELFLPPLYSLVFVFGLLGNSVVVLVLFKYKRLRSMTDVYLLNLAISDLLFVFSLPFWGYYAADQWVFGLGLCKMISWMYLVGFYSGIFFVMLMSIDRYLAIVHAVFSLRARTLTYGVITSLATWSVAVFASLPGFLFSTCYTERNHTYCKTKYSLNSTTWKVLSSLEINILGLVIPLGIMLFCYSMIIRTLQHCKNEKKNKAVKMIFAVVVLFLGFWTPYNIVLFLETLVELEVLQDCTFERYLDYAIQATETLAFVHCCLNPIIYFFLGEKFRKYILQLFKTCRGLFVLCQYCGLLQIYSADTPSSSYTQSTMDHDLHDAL
# Measurement Description: PathHunter eXpress CCR4 CHO-K1 β-Arrestin GPCR Assay, antagonist format with CCL22
# Type: cell-based
# Assay Context: 10 nM CCL22, 5.6 uM
Quantity Name: Raw Data

> print(dat)
                             sequence.entry  measurement
1  ACPLMSSVNCTAGCA [24-13-00-N001, bicyclic peptide ligand, TBMB scaffold, from CCR4 cell-based selection]       180947
2  ACRAVHSLRCLTTCA [24-17-00-N001, bicyclic peptide ligand, TATA scaffold, from CCR4 cell-based selection]       148721
3  ACLNGCRNTNSQCA [24-11-00-N001, bicyclic peptide ligand, TATA scaffold, from CCR4 cell-based selection]       145586
4  ACLSCARHGNQCA [24-12-00-N001, bicyclic peptide ligand, TATA scaffold, from CCR4 cell-based selection]       164381
5  ACQLTCLTPARQPGCA [24-14-00-N001, bicyclic peptide ligand, TATA scaffold, from CCR4 cell-based selection]       150686
6  ACQLTCLPPPRQPGCA [24-15-00-N001, bicyclic peptide ligand, TATA scaffold, from CCR4 cell-based selection]       119202
7  ACQTLCNTAEDIRCA [24-16-00-N001, bicyclic peptide ligand, TBMB scaffold, from CCR4 cell-based selection]       140714
